# Measurement notes: AUC (0 to infinity) in rat at 10 mg/kg, iv
# Type: ADME, organism-based
# Design: time infinity, dose 10 mg/kg, route intravenous
# Stated conditions: plasma
Property label: AUC(0-inf) (ng·h/mL)

INSERT INTO measurements (smiles_code, quantity_unit, value_observed) VALUES
  ('CNCC[C@@H](c1ccc(Cl)c(Cl)c1)n1nnc(C)n1', 'ng·h/mL', 4150);

---

# Measurement notes: Cmax in rat at 10 mg/kg, iv
# Type: ADME, organism-based
# Design: dose 10 mg/kg, route intravenous
# Stated conditions: in vivo
Property label: Cmax (µg/mL)

INSERT INTO assay_data (smiles_code, quantity_unit, value_observed) VALUES
  ('CNCC[C@@H](c1ccc(Cl)c(Cl)c1)n1nnc(C)n1', 'µg/mL', 3.83);

---

# Experimental target: Sodium-dependent noradrenaline transporter (Homo sapiens, UniProt P23975)
# Sequence (P23975 whole entry): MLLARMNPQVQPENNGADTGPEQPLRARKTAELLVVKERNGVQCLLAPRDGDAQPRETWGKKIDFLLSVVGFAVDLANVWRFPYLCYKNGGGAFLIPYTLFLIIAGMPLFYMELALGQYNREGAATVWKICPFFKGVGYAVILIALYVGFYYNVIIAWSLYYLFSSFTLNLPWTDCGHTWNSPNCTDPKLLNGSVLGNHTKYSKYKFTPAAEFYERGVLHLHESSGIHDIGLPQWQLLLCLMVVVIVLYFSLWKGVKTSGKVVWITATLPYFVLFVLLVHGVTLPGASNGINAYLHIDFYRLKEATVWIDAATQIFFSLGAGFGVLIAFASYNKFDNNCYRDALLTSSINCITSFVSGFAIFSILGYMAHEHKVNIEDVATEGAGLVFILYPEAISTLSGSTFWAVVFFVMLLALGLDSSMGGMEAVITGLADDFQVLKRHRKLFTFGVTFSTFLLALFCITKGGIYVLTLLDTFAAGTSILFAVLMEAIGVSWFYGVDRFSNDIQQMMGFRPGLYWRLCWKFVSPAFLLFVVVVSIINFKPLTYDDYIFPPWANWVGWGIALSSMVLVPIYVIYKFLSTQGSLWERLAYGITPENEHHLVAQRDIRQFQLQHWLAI
# Measurement notes: Inhibition of norepinephrine reuptake at human NET expressed in MDCK cells at 100 nM
Property label: inhibition (%)

INSERT INTO measurements (compound, value_observed) VALUES
  ('COc1ccc2cc(C(CCN(C)C)n3ncnn3)ccc2c1 (racemic)', 39),
  ('CNCC[C@@H](c1ccc2ccccc2c1)n1nnc(C)n1', 79),
  ('CN(C)CCC(c1ccc2cc(Cl)ccc2c1)n1ncnn1 (racemic)', 32),
  ('Cc1nnn(C(CCN(C)C)c2ccc3cc(F)ccc3c2)n1 (racemic)', 10),
  ('CNCCC(c1ccc2ccccc2c1)n1ncnn1 (racemic)', 84),
  ('CN(C)CCC(c1ccc2ccccc2c1)n1ncnn1 (racemic)', 30);

---

# Experimental target: Sodium-dependent dopamine transporter (Homo sapiens)
# Sequence (Q01959 whole entry): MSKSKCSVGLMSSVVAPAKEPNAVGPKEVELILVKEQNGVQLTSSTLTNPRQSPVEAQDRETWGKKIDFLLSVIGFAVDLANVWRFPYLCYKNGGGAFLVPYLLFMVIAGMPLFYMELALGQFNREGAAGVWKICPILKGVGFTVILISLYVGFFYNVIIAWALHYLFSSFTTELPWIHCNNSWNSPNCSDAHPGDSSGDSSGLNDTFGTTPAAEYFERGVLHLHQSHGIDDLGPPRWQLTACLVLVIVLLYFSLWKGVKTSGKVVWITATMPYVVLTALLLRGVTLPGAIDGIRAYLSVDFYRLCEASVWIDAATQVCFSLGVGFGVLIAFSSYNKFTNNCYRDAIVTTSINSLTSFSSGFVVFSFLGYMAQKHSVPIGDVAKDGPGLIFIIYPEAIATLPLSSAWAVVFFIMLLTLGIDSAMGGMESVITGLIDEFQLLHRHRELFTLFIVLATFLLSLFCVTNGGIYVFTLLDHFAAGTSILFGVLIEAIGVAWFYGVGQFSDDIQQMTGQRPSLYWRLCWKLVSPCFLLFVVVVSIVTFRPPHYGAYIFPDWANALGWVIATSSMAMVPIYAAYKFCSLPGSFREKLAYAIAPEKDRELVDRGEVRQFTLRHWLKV
# Measurement notes: Inhibition of dopamine reuptake at human dopamine transporter expressed in CHO cells at 100 nM
Recorded measurements of inhibition, one per entry
Property label: inhibition (%)

INSERT INTO results (compound, experimental_target, property_label, value_observed) VALUES
  ('COc1ccc2cc(C(CCN(C)C)n3ncnn3)ccc2c1 (racemic)', 'Sodium-dependent dopamine transporter (Homo sapiens)', 'inhibition', 36),
  ('Cc1nnn(C(CCN(C)C)c2ccc3cc(F)ccc3c2)n1 (racemic)', 'Sodium-dependent dopamine transporter (Homo sapiens)', 'inhibition', 6),
  ('CNCCC(c1ccc2cc(OC)ccc2c1)n1ncnn1 (racemic)', 'Sodium-dependent dopamine transporter (Homo sapiens)', 'inhibition', 4),
  ('CNCCC(c1ccc2cc(F)ccc2c1)n1nnc(C)n1 (racemic)', 'Sodium-dependent dopamine transporter (Homo sapiens)', 'inhibition', 10),
  ('CN(C)CCC(c1ccc2cc(Cl)ccc2c1)n1ncnn1 (racemic)', 'Sodium-dependent dopamine transporter (Homo sapiens)', 'inhibition', 18),
  ('CNCCC(c1ccc2cc(F)ccc2c1)n1ncnn1 (racemic)', 'Sodium-dependent dopamine transporter (Homo sapiens)', 'inhibition', 6),
  ('CNCCC(c1ccc2cc(C)ccc2c1)n1ncnn1 (racemic)', 'Sodium-dependent dopamine transporter (Homo sapiens)', 'inhibition', 3);

---

# Experimental target: UniProt:P31652
# Sequence (P31652 whole entry): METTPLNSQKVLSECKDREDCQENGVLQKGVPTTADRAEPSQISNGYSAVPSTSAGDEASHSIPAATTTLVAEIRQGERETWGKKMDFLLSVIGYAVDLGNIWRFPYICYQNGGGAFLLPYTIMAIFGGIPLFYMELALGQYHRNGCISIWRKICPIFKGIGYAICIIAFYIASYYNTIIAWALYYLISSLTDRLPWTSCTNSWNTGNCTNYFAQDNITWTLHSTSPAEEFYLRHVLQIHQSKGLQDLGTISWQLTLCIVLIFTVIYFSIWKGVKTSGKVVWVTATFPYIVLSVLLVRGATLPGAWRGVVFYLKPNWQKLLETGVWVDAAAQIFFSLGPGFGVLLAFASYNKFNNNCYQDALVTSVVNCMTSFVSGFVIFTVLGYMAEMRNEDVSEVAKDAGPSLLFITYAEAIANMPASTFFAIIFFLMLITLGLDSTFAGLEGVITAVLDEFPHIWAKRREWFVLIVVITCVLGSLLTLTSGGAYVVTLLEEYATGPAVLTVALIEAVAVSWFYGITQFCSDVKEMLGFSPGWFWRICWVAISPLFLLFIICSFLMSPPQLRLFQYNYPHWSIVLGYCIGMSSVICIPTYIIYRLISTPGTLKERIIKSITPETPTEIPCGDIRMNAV
# Measurement notes: Displacement of [3H]paroxetine from SERT in rat cerebral cortex at 100 nM
Property label: inhibition

INSERT INTO assay_data (molecule, value_observed) VALUES
  ('Cc1nnn(C(CCN(C)C)c2ccc(C(C)(C)C)cc2)n1 (racemic)', '-3%'),
  ('CNCCC(c1ccc(Cl)c(Cl)c1Cl)n1ncnn1 (racemic)', '39.1%'),
  ('CNCCC(c1ccc2cc(OC)ccc2c1)n1ncnn1 (racemic)', '81.2%'),
  ('CN(C)CCC(c1ccc(OCc2ccccc2)cc1)n1ncnn1 (racemic)', '9.5%'),
  ('CNCCC(c1ccc2cc(OC)ccc2c1)n1nnc(C)n1 (racemic)', '80.2%'),
  ('CNCC[C@@H](c1ccc2ccccc2c1)n1nnc(C)n1', '60.2%'),
  ('CNCC[C@@H](c1ccc(Cl)c(Cl)c1)n1nnc(C)n1', '61.2%'),
  ('CN(C)CCC(c1cccc(Cl)c1)n1ncnn1 (racemic)', '-5.6%'),
  ('CNCC[C@H](c1ccc2ccccc2c1)n1nnc(C)n1', '34.5%'),
  ('CNCCC(c1ccc2cc(F)ccc2c1)n1ncnn1 (racemic)', '80.1%'),
  ('Cc1nnn(C(CCN(C)C)c2ccc3cc(F)ccc3c2)n1 (racemic)', '67.5%'),
  ('CNCCC(c1ccc(C(F)(F)F)cc1)n1ncnn1 (racemic)', '15.3%'),
  ('CNCCC(c1ccccc1Cl)n1nnc(C)n1 (racemic)', '5.9%'),
  ('CNCCC(c1ccc(Br)cc1)n1ncnn1 (racemic)', '10.7%'),
  ('CNCCC(c1ccc(Oc2ccccc2)cc1)n1ncnn1 (racemic)', '-1.7%');
